Target: T1, human TMEM106B (human, UniProt Q9NUM4 2-274)
T1 construct: Full-length, on transiently transfected HEK293 cells, or natively expressed on HeLa, U251 and A549 cells; also called huTMEM106B; huTMEM
Assay: FACS A549, 10 ug/ml
quantityMeasured: MFI
One number for each entry.

anti-TMEM106B antibody TM-50 (antibody, V domains shown, mouse IgG from hybridoma) VH: QVQLKESGPVLVAPSQSLSITCTVSGFSLTNYGVHWVRQPPGKGLEWLGVIWAGGNTNYNSALMSRLSISKDNSKSQVFLKMNSLQTDDTAMYYCAKEAKLLRSYAMDYWGQGTLVTVSA VL: DVQMTQTTSSLSASLGDRVTISCRASQDINNYLYWYQQKPDGTVKLLIYYTSMLHSGVPSRFSGSGSGTDYSLTISNLEQEDIATYFCQQGSTLMYTFGGGTKLEIK : 445

Prompt line: Fill in the blank: the reported MFI of anti-TMEM106B antibody TM-24 (antibody, V domains shown, mouse IgG from hybridoma) VH: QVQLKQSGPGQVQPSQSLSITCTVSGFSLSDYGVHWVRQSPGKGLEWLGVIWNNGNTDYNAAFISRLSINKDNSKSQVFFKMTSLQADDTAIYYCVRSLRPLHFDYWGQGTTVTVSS VL: DIVMTQSPSSLTMSVGQKVTMNCKSSQSLLNSNNQQNYLAWYQQKPGQSPKLLVYFASIRESGVPDRFIGSGSGTDFTLTINSVQAEDLADYFCQQHYSTPFTFGSGTKLEIR is ____.
Response line: 4480
